Reported Relative Binding Affinity KDR Receptor is given for each of the following molecules.
# system.name: KDR receptor (Homo sapiens, UniProt P35968)
# Sequence (P35968 20-327 limits assumed): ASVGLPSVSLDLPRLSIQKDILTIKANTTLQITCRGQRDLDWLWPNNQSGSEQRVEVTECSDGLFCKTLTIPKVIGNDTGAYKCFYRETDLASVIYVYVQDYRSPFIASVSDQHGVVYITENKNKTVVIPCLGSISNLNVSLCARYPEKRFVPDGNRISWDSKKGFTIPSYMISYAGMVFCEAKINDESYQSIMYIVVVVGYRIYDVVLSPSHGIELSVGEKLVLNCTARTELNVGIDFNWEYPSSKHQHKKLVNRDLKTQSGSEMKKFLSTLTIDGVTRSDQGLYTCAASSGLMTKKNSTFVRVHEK
# run.description: KDR receptor binding ELISA (inhibition of biotinylated native VEGF (8-109) binding)
# condition: second figure of the cell, ratio to native VEGF (8-109)
# Protocol: Receptor binding assays were performed in 96-well immunoplates (Maxisorp, Nunc-Immunoplate, Nalge Nunc International, Rochester, N.Y.). […] Aliquots of this mixture (100 μl) were added to the precoated microtiter wells and the plate was incubated for 1 hour at room temperature. […] Absorbance was read at 450 nm on a Vmax plate reader (Molecular Devices, Menlo Park, Calif.). […]

Known Relative Binding Affinity KDR Receptor results, listed for orientation:
LK-VRB-13s: VEGF (1-109) variant, M18E/Y25S/D63S/G65M/L66R (protein) APMAEGGGQNHHEVVKFEDVYQRSSCHPIETLVDIFQEYPDEIEYIFKPSCVPLMRCGGCCNSEMRECVPTEESNITMQIMRIKPHQGQHIGEMSFLQHNKCECRPKKD; 14 nM/14
LK-VRB-3s: VEGF (1-109) variant, F17I/M18E/Y21F/Q22K/Y25S (protein) APMAEGGGQNHHEVVKIEDVFKRSSCHPIETLVDIFQEYPDEIEYIFKPSCVPLMRCGGCCNDEGLECVPTEESNITMQIMRIKPHQGQHIGEMSFLQHNKCECRPKKD; 1 nM/1

Please look at the following molecule next.
input: # return recorded Relative Binding Affinity KDR Receptor for input LK-VRB-26s: VEGF (1-109) variant, G65M/L66R/M18E/Y21L/Q22R/Y25S (protein) APMAEGGGQNHHEVVKFEDVLRRSSCHPIETLVDIFQEYPDEIEYIFKPSCVPLMRCGGCCNDEMRECVPTEESNITMQIMRIKPHQGQHIGEMSFLQHNKCECRPKKD
output: 23 nM/23
